# System: AAC(6')-Ib'
# Measurement Protocol: acetylation of compounds by AAC
# Format: biochemical
# Conditions: initial rate normalized to 1 = 100%; 100 µM compound
The reader will find reported relative activity of AAC(6')-Ib' on compound values listed item by item below.
Write the number in % without appending the unit.

{"Compound": "CCC[C@@H]1C[C@@H](C(=O)NC([C@H]2O[C@H](SC)[C@H](O)[C@@H](O)[C@H]2O)[C@@H](C)SCCOCCSSCCOCCSC[C@H]2O[C@@H](O[C@@H]3[C@@H](O)[C@H](O[C@H]4O[C@H](CN)[C@@H](O)C[C@H]4N)[C@@H](N)C[C@H]3N)[C@H](O)[C@@H](N)[C@@H]2O)N(C)C1 (stereo partly shown)", "Numeric Readout": 20}

Fill in the blank: the reported relative activity of AAC(6')-Ib' on compound of "NC[C@H]1O[C@H](O[C@H]2[C@H](O)[C@@H](O[C@@H]3O[C@H](CSCCOCCSCC(=O)N[C@H](CO)[C@H](O)c4ccc([N+](=O)[O-])cc4)[C@@H](O)[C@H](N)[C@H]3O)[C@H](N)C[C@@H]2N)[C@H](N)C[C@@H]1O" is ____. 37

Fill in the blank: the reported relative activity of AAC(6')-Ib' on compound of "NC[C@H]1O[C@H](O[C@H]2[C@H](O)[C@@H](O[C@@H]3O[C@H](CSCCOCCSSCCOCCSC[C@H]4O[C@@H](O[C@@H]5[C@@H](O)[C@H](O[C@H]6O[C@H](CN)[C@@H](O)C[C@H]6N)[C@@H](N)C[C@H]5N)[C@H](O)[C@@H](N)[C@@H]4O)[C@@H](O)[C@H](N)[C@H]3O)[C@H](N)C[C@@H]2N)[C@H](N)C[C@@H]1O" is ____. 39

Fill in the blank: the reported relative activity of AAC(6')-Ib' on compound of "NC[C@H]1O[C@H](O[C@H]2[C@H](O)[C@@H](O[C@@H]3O[C@H](CSCCOCCSSCCOCCSCC(=O)N[C@H](CO)[C@H](O)c4ccc([N+](=O)[O-])cc4)[C@@H](O)[C@H](N)[C@H]3O)[C@H](N)C[C@@H]2N)[C@H](N)C[C@@H]1O" is ____. 31
